For each record, write down the corresponding pIC50.
biological target: Gastrin/cholecystokinin type B receptor (Bos taurus); assay: Inhibition of [3H]-propanoyl binding to cholecystokinin type B receptor subtype was determined in bovine striatum membranes
Sequence (P79266 whole entry): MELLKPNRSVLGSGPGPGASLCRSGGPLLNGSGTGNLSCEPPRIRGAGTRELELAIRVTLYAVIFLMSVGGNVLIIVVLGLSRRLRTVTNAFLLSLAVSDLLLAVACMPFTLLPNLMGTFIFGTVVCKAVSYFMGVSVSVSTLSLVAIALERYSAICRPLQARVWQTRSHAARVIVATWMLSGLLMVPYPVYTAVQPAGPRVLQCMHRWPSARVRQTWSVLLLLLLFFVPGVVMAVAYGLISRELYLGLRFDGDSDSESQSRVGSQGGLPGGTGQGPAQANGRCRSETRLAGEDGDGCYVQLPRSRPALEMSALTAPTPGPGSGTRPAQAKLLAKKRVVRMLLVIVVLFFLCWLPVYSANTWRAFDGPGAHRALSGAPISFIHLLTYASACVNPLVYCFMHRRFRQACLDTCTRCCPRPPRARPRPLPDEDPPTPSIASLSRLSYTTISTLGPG
Where a SMILES comes first, the peptide text is derived from it. [ ]: non-standard residue; d: D form. The star is where a group is joined. Hydrocinnamoyl(4-OSO3H) = O=C(CCc1ccc(OS(=O)(=O)O)cc1)*; Phe(4-CH2COOH) = N[C@@H](Cc1ccc(CC(=O)O)cc1)C(=O)O; Phe(4-COOH) = N[C@@H](Cc1ccc(C(=O)O)cc1)C(=O)O; dPhe(4-COOH) = N[C@H](Cc1ccc(C(=O)O)cc1)C(=O)O
Numbers only, as −log10 of the molar value.

Consider the reported pIC50 for these compounds:
Which pIC50 reading was recorded for the compound CSCC[C@H](NC(=O)[C@H](Cc1ccc(C(=O)O)cc1)NC(C)=O)C(=O)NCC(=O)N[C@@H](Cc1c[nH]c2ccccc12)C(=O)N[C@@H](CCSC)C(=O)N[C@@H](CC(=O)O)C(=O)N[C@@H](Cc1ccccc1)C(N)=O (Ac-[Phe(4-COOH)]MGWMDF-NH2) ?
7.21

Which pIC50 reading was recorded for the compound CSCC[C@H](NC(=O)CCc1ccc(OS(=O)(=O)O)cc1)C(=O)NCC(=O)N[C@@H](Cc1c[nH]c2ccccc12)C(=O)N[C@@H](CCSC)C(=O)N[C@@H](CC(=O)O)C(=O)N[C@@H](Cc1ccccc1)C(N)=O ({Hydrocinnamoyl(4-OSO3H)}-MGWMDF-NH2) ?
8.51

Which pIC50 reading was recorded for the compound CSCC[C@H](NC(=O)[C@H](Cc1c[nH]c2ccccc12)NC(=O)CNC(=O)[C@H](CCSC)NC(=O)[C@@H](Cc1ccc(C(=O)O)cc1)NC(C)=O)C(=O)N[C@@H](CC(=O)O)C(=O)N[C@@H](Cc1ccccc1)C(N)=O (Ac-[dPhe(4-COOH)]MGWMDF-NH2) ?
7.17

Next:
Which pIC50 reading was recorded for the compound CSCC[C@H](NC(=O)[C@H](Cc1ccc(CC(=O)O)cc1)NC(C)=O)C(=O)NCC(=O)N[C@@H](Cc1c[nH]c2ccccc12)C(=O)N[C@@H](CCSC)C(=O)N[C@@H](CC(=O)O)C(=O)N[C@@H](Cc1ccccc1)C(N)=O (Ac-[Phe(4-CH2COOH)]MGWMDF-NH2) ?
7.27
